Sourced from patent US20250313563A1

System Name: GSK3α (GST-full length GSK3α) (Homo sapiens (Human), UniProt P49840)
Sequence (P49840 whole entry): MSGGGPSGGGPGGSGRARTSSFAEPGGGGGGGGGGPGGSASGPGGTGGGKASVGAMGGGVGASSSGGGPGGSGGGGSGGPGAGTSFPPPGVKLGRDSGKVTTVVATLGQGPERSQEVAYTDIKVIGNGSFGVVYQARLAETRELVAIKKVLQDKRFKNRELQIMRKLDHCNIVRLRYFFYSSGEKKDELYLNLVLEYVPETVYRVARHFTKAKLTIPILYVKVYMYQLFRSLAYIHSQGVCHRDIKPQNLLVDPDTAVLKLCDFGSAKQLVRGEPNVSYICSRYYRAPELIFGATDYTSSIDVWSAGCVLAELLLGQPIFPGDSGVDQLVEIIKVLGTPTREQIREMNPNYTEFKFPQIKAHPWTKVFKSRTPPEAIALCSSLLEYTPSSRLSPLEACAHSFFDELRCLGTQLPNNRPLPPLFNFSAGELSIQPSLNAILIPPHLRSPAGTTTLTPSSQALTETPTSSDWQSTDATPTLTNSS
Procedure Summary: GSK3α TR-FRET kinase assay
Type: biochemical
Condition Description: 1 nM GSK3α, 4 μM ATP, 30 minute preincubation, Table 16; read-out: GSK3-A TR-FRET BIOCHEMICAL (TR-FRET); IC50
Quantity: IC50

Worked examples, 5 compounds total:
{"Compound": "CC[C@]1(c2cccc(N(C)c3ccnc(F)c3)c2)C2=C(CC(C)(C)CC2=O)Nc2n[nH]cc21", "IC50": "1000 to 5000 nM"}
{"Compound": "CCC1(c2cccc(N(C)c3cccc(F)n3)c2)C2=C(CC(C)(C)CC2=O)Nc2n[nH]cc21 (centres unmarked)", "IC50": "≤ 100 nM"}
{"Compound": "CCC1(c2cccc(-c3ccnc(O)c3)c2)C2=C(CC(C)(C)CC2=O)Nc2n[nH]cc21 (centres unmarked)", "IC50": "≤ 100 nM"}
{"Compound": "CC[C@]1(c2cccc(-c3cnn4cccnc34)c2)C2=C(CC(C)(C)NC2=O)Nc2n[nH]cc21", "IC50": "≤ 100 nM"}
{"Compound": "CCC1(c2cccc(C(F)(F)F)c2)C2=C(CCN(c3cnn(C)c3C)C2=O)Nc2n[nH]cc21 (centres unmarked) [Compound 952262]", "IC50": "> 5000 nM"}

**Q:** Which IC50 is listed for `CC[C@]1(c2cccc(C(F)(F)F)c2)C2=C(CCN(c3cc(C)n(C)n3)C2=O)Nc2n[nH]cc21` ?
**A:** > 5000 nM

**Q:** # query: IC50 of entry `CC[C@@]1(c2cccc(N(C)c3cncnc3)c2)C2=C(CC(C)(C)CC2=O)Nc2n[nH]cc21`
**A:** ≤ 100 nM

**Q:** Look at this compound and give its reported IC50. CCC1(c2cccc(N3CCCc4ncccc43)c2)C2=C(CC(C)(C)CC2=O)Nc2n[nH]cc21 (centres unmarked) [Compound 917079]
**A:** 100 to 1000 nM

**Q:** Please look up its IC50: CCC1(c2cccc(-c3ccncc3F)c2)C2=C(CC(C)(C)CC2=O)Nc2n[nH]c(C)c21 (centres unmarked) [Compound 913052]
**A:** ≤ 100 nM

**Q:** # query: IC50 of entry CCC1(c2cccc(N(C)C(=O)c3cnn(C)c3)c2)C2=C(CC(C)(C)CC2=O)Nc2n[nH]cc21 (centres unmarked) [Compound 913311]
**A:** ≤ 100 nM

**Q:** Form field: reported IC50 of `CC[C@@]1(c2cccc(Oc3ncccn3)c2)C2=C(CC(C)(C)NC2=O)Nc2n[nH]c(Cl)c21`
**A:** 1000 to 5000 nM

**Q:** Need IC50, item CCC1(c2cccc(N(C)c3cnccn3)c2)C2=C(CC(C)(C)CC2=O)Nc2n[nH]cc21 (centres unmarked)
**A:** ≤ 100 nM

**Q:** For the compound CCC1(c2cccc(-c3ccnc(C)c3)c2)C2=C(CC(C)(C)CC2=O)Nc2n[nH]c(C)c21 (centres unmarked) [Compound 913051] , what IC50 is on record?
**A:** 100 to 1000 nM

**Q:** # input compound: CCC1(c2cccc(-c3cnn4c3CCCC4)c2)C2=C(CC(C)(C)CC2=O)Nc2n[nH]c(C)c21 (centres unmarked) [Compound 913036] ; wanted: its IC50
**A:** ≤ 100 nM

**Q:** I'd like to know its IC50. The compound in question is CCC1(c2cccc(N(C)C(=O)CN3CCCC3)c2)C2=C(CC(C)(C)CC2=O)Nc2n[nH]cc21 (centres unmarked) [Compound 909202]
**A:** 100 to 1000 nM

**Q:** Any idea what IC50 was measured for `CC[C@]1(c2ccccc2)C2=C(Nc3n[nH]cc31)[C@@H](C)C[C@@H](C)C2=O` ?
**A:** 100 to 1000 nM

**Q:** What measured IC50 goes with `CC(=O)N1CC[C@@]2(C1)C1=C(CC(C)(C)CC1=O)Nc1n[nH]cc12` ?
**A:** 1000 to 5000 nM

**Q:** Which IC50 value is on record for `CC1(C)CC(=O)C2=C(C1)Nc1n[nH]cc1[C@@]21CCO[C@H](C(C)(C)C)C1` ?
**A:** > 5000 nM

**Q:** Recorded IC50 of CCC1(c2cccc(N3CCCCC3C)c2)C2=C(CC(C)(C)CC2=O)Nc2n[nH]cc21 (mixture of isomers) , please.
**A:** 100 to 1000 nM

**Q:** Requested read-out: IC50. Entry: `CC[C@]1(c2cccc(N(C)c3ncccn3)c2)C2=C(CC(C)(C)NC2=O)Nc2n[nH]c(C(F)F)c21`
**A:** ≤ 100 nM

**Q:** Would you mind telling me what IC50 value was observed for CC1(C)CC(=O)C2=C(C1)Nc1n[nH]cc1C21CCCN(C(=O)c2ccccc2)CC1 (centres unmarked) ?
**A:** 1000 to 5000 nM

**Q:** Please look up its IC50: `CC[C@@]1(c2cccc(-c3cn(C)nc3C(C)C)c2)C2=C(CC(C)(C)CC2=O)Nc2n[nH]c(C)c21`
**A:** ≤ 100 nM

**Q:** Need IC50 of CCC1(c2cccc(-c3cc(C4CCCC4)nn3C)c2)C2=C(CC(C)(C)NC2=O)Nc2n[nH]cc21 (centres unmarked) , thanks.
**A:** 100 to 1000 nM
